Kindly supply the reported EC50 values for the records listed here.
- target-desc: GKRP (Glucokinase Regulatory Protein) with human His-hepatic GK (Homo sapiens, UniProt Q14397)
- run-description: biochemical
- condition-label: 13C-glucose-6-phosphate formation; 280 nM GKRP (10×), 30 nM GK (5×); read-out: GK-GKRP EC50 (LC MS/MS-2)
Provide a numeric answer, followed by its unit.

CC(O)(c1ccc(N2CCN(S(=O)(=O)c3cccs3)C[C@@H]2CSc2cccc(F)c2)cc1)C(F)(F)F (mixture of isomers) : 43 nM
CC(O)(c1ccc(N2CCN(S(=O)(=O)c3cccs3)C[C@@H]2CN(Cc2cccnc2)S(C)(=O)=O)cc1)C(F)(F)F (mixture of isomers) : 41 nM
CC(C)CN(C[C@H]1CN(S(=O)(=O)c2cccnc2N)CCN1c1ncc(C(O)(C(F)(F)F)C(F)(F)F)cn1)S(C)(=O)=O : 95 nM
CC(O)(c1cnc(N2CCN(S(=O)(=O)c3ccc(N)s3)C[C@@H]2CC2CCOCC2)nc1)C(F)(F)F (mixture of isomers) : 108 nM

Turning now to a further record.
Return EC50 for the following compound: CC(C)N(C[C@H]1CN(S(=O)(=O)c2ccc(N)s2)CCN1c1ncc(C(O)(C(F)(F)F)C(F)(F)F)cn1)S(C)(=O)=O
20 nM

* * *

Kindly supply the reported IC50 values for the records listed here.
- target-desc: GK-GKRP (Homo sapiens, UniProt Q14397)
Provide a numeric answer, followed by its unit.

Worked cases, IC50 given:
CC(O)(c1cnc(-c2ccc(S(=O)(=O)c3ccc(N)nc3)cc2)nc1)C(F)(F)F (racemic) : 229 nM
CC1(C)C(=O)NCCN1C[C@H]1CN(S(=O)(=O)c2ccc(N)nc2)CCN1c1ncc(C(O)(C(F)(F)F)C(F)(F)F)cn1 : 8 nM
CC(O)(c1ccc(N2CCN(S(=O)(=O)c3cccs3)C[C@@H]2CN2CCNC(C(F)(F)F)C2)cc1)C(F)(F)F (single isomer, unassigned) [Example 270 Peak 1] : 251 nM
CC(C)N1C(=O)N(C[C@H]2CN(S(=O)(=O)c3cccs3)CCN2c2ccc(C(C)(O)C(F)(F)F)cc2)C(C)(C)C1=O (mixture of isomers) : 19 nM
Nc1ccc(S(=O)(=O)c2ccc(-c3ncc(C(O)(C(F)(F)F)C(F)(F)F)cn3)cn2)cn1 : 103 nM

Return IC50 for the following compound: CC(C)S(=O)(=O)NC[C@H]1CN(S(=O)(=O)c2cccs2)CCN1c1ccc(C(C)(O)C(F)(F)F)cc1 (mixture of isomers)
335 nM

* * *

- target-desc: GKRP (Glucokinase Regulatory Protein) with human His-hepatic GK (Homo sapiens, UniProt Q14397)
- Sequence (Q14397 1-625): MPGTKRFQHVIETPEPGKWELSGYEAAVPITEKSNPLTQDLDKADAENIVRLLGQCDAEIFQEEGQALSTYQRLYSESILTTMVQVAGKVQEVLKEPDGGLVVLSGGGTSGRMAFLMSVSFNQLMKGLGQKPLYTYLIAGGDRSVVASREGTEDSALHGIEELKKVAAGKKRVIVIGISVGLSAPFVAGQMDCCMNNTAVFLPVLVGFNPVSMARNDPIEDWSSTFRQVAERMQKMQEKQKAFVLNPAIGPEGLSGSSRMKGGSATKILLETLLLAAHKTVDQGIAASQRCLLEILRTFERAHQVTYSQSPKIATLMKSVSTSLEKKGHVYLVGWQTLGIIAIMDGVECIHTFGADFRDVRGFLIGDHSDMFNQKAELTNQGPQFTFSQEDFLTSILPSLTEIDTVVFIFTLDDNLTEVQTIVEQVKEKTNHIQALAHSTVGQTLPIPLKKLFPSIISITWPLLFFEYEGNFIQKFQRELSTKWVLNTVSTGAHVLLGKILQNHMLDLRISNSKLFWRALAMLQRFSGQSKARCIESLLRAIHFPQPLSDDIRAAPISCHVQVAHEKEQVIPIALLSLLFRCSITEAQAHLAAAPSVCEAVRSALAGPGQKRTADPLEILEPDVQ
- run-description: GKRP NADPH Coupled Assay
- Format: biochemical
- condition-label: GK-GKRP EC50 (NADPH-coupled), indirect measure of glucose-6-phosphate, fluorescence; 1 μM GKRP (10×), 20 nM GK (5×)
Counter-ions that a name gives are not always drawn.
So basically every entry gets a class from its EC50, ranges being bin A: < 500 nM; bin B: ≥ 500 nM and < 2000 nM; bin C: ≥ 2000 nM

C[C@H]1COCCN1CC1CN(S(=O)(=O)c2cccs2)CCN1c1ccc(C(C)(O)C(F)(F)F)cc1 (single isomer, unassigned) [Example 45 Peak #1] : bin A
CC(O)(c1ccc(N2CCN(S(=O)(=O)c3ccccc3)CC2)cc1)C(F)(F)F (racemic) [Example 24] : bin B
CC(O)(c1ccc(N2CCN(S(=O)(=O)c3cccs3)CC2c2cc(Cl)ccc2Cl)cc1)C(F)(F)F (mixture of isomers) [Example 13] : bin C

Exam item: assign O=S(=O)(c1cccs1)N1CCN(c2ccc(C(O)(C(F)(F)F)C(F)(F)F)cc2-c2ccccc2)CC1 [Example 69, trifluoroacetate] to the correct category.
bin C

* * *

- target-desc: interaction between glucokinase (GK) and glucokinase regulatory protein (GKRP) (Homo sapiens, UniProt Q14397)
- run-description: biochemical
- Type: binding
- condition-label: avi-tagged GKRP, GK-fluorescein, AlphaScreen beads; read-out: GK-GKRP IC50 (Binding)
- Protocol: GK-GKRP Binding Assay Protocol This assay is used to directly measure the interaction between glucokinase (GK) and glucokinase regulatory protein (GKRP). Begin by preparing the following solutions. Assay Buffer: 20 mM Tris, pH 7.5/0.05% BSA/1 mM DTT/1 μM sorbitol-6-phosphate. […] Combine the following reagents in a white 96-well half area plate. Pipette 14 μl of the diluted avi-tagged GKRP into each well. […] After 2 hours read the plate using an Envision plate reader (Perkin Elmer, Waltham Mass.).
Kindly supply the reported IC50 values for the records listed here.
Answers are plain numbers, in nM.

Worked cases, IC50 given:
CC(O)(c1ccc(N2CCN(S(=O)(=O)c3cccs3)C[C@@H]2CS(=O)(=O)c2cccc(F)c2)cc1)C(F)(F)F (mixture of isomers) [Example 189 Peak#1] : 374
CC(C)N(C[C@H]1CN(S(=O)(=O)c2cccs2)CCN1c1ccc(C(C)(O)C(F)(F)F)cc1)S(=O)(=O)c1ccccc1 (mixture of isomers) [Example 197] : 215

Turning now to a further record.
Return IC50 for the following compound: C[C@H]1COCCN1C[C@H]1CN(S(=O)(=O)c2ccc(N)nc2)CCN1c1ncc(C(C)(O)C(F)(F)F)cn1 (mixture of isomers) [Example 129]
36

* * *

- target-desc: GKRP (Glucokinase Regulatory Protein) with human His-hepatic GK (Homo sapiens, UniProt Q14397)
- run-description: GKRP NADPH Coupled Assay
- Type: biochemical
- condition-label: GK-GKRP EC50 (NADPH-coupled), indirect measure of glucose-6-phosphate, fluorescence; 1 μM GKRP (10×), 20 nM GK (5×)
Kindly supply the reported EC50 values for the records listed here.

O=S(=O)(c1cccs1)N1CCN(c2ccc(C(O)(C(F)(F)F)C(F)(F)F)cc2-c2ccc(O)cc2)CC1 : 1470 nM
CC(O)(c1ccc(N2CCN(S(=O)(=O)c3cccs3)CC2CN2CCOCC2)cc1)C(F)(F)F (mixture of isomers) : 230 nM
O=S(=O)(c1ccccc1)N1CCN(c2ccc(C(O)(C(F)(F)F)C(F)(F)F)cn2)CC1 : 2730 nM
O=S(=O)(c1cccs1)N1CCN(c2ccc(C(O)(C(F)(F)F)C(F)(F)F)cc2-c2cccc(F)c2)CC1 : 3670 nM
CC(O)(c1ccc(N2CCN(S(=O)(=O)c3cccs3)CC2CN2CC3CCC(C2)O3)cc1)C(F)(F)F (racemic) : 154 nM

Parameter requested: EC50. Apply to each item below.
1. O=S(=O)(c1cccs1)N1CCN(c2ccc(C(O)(C(F)(F)F)C(F)(F)F)cc2)[C@@H](Cc2ccccc2)C1
2. O=S(=O)(c1ccccn1)N1CCN(c2ccc(C(O)(C(F)(F)F)C(F)(F)F)cc2)CC1

1. 308 nM
2. 3780 nM

* * *

- target-desc: GKRP (Glucokinase Regulatory Protein) with human His-hepatic GK (Homo sapiens, UniProt Q14397)
- run-description: GKRP NADPH Coupled Assay
- Format: biochemical
- condition-label: GK-GKRP EC50 (NADPH-coupled), indirect measure of glucose-6-phosphate, fluorescence; 1 μM GKRP (10×), 20 nM GK (5×)
Where a name gives a salt, the structure may show the parent alone.
Rule for this label: T means EC50 is less than 700 nM; F means EC50 is at least 700 nM.

Examples with answers:
CC(O)(c1ccc(N2CCN(S(=O)(=O)c3cccs3)CC2CN2C[C@H]3C[C@@H]2CO3)cc1)C(F)(F)F (some centres unmarked) [Example 50] : T
O=S(=O)(c1nccs1)N1CCN(c2ccc(C(O)(C(F)(F)F)C(F)(F)F)cc2)CC1 [Example 33, trifluoroacetate] : T
CC(O)(c1ccc(N2CCN(S(=O)(=O)c3cccs3)CC2CC2CCOCC2)cc1)C(F)(F)F (single isomer, unassigned) [Example 37 Peak #1] : T
CC1CN(CC2CN(S(=O)(=O)c3cccs3)CCN2c2ccc(C(C)(O)C(F)(F)F)cc2)CCO1 (mixture of isomers) [Example 49] : T

Now take the following compound into account.
Is the reported EC50 for O=S(=O)(c1cccs1)N1CCN(c2ccc(C(O)(C(F)(F)F)C(F)(F)F)cc2)C(Cc2cccc(O)c2)C1 (racemic) [Example 176] strictly below 700 nM?
F

Reference source for all entries: patent US8431563B2
